test: In vivo pharmacokinetic study in rats
Set-up: species or system male SD rats
conditions: male, SD, rat, plasma, iv, i.v. 1 mg/kg, read-out: Vdss
experimental_readout: Vd (L/kg)

[[record]]
structure_string = "FCCCN1CC(Nc2ccc(C3=C(CC(F)(F)F)CCCc4c3ccc3[nH]nc(F)c43)nc2)C1"
reported_result = 15.9


* * *

test: In vivo pharmacokinetic study in rats
Parameters: species or system male SD rats
conditions: male, SD, rat, plasma, po, p.o. 2 mg/kg
experimental_readout: Cmax (nM)

[[record]]
compound = "FCCCN1CC(Nc2ccc(C3=C(CC(F)(F)F)CCCc4c3ccc3[nH]nc(F)c43)nc2)C1 [Compound 2]"
reported_result = 39.3


* * *

experimental_system: ERα (Homo sapiens (Human), UniProt P03372)
Sequence (P03372 whole entry): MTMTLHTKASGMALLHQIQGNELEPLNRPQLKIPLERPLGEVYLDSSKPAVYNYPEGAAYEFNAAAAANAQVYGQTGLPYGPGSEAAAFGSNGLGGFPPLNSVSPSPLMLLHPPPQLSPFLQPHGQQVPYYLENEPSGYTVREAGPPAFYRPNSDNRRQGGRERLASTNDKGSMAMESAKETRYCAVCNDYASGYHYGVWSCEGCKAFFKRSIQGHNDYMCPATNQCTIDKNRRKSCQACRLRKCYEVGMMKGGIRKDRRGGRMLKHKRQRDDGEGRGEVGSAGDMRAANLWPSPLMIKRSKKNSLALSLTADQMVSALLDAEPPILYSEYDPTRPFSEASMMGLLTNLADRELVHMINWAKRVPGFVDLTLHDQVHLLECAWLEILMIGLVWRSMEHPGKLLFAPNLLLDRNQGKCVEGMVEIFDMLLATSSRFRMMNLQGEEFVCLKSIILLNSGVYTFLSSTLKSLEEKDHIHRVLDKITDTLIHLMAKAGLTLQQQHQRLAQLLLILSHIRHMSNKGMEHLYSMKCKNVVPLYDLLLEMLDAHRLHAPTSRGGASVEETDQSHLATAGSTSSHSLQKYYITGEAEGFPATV
test: Degradation experiment of MCF-7 ERα (ELISA)
Format: cell-based
conditions: MCF-7 cell line, 4 hours incubation, total ERα ELISA; read-out: IC50 value of promoting ERα degradation
Procedure: (2) Degradation Experiment of MCF-7 ERα Experimental Materials: […] Data analysis: A, B, C and D in the four-parameter equation y=(A−D)/[1+(x/C)^B]+D were calculated according to the original data of the standard curve, wherein, y was the original OD450 value, x was the concentration of the corresponding point of the standard curve. According to the four-parameter equation and the OD450 reading of the original data of the sample, the concentration of ERα at the corresponding point was calculated. […]
Reported log10(DC50) values are given for each entry in this list.
experimental_readout: log10(DC50) (log10 of the value in pM)

[[record]]
compound = "FCCCN1CC(Nc2cnc(C3=C(CC(F)(F)F)CCOc4c3ccc3[nH]ncc43)cn2)C1"
experimental_system = "ERα (Homo sapiens (Human), UniProt P03372)"
reported_result = 2.65

[[record]]
compound = "FCCCN1CC(Nc2ccc(C3=C(CC(F)(F)F)CCCc4c3ccc3[nH]ncc43)nc2)C1"
experimental_system = "ERα (Homo sapiens (Human), UniProt P03372)"
reported_result = 2.62

[[record]]
compound = "FCCCN1CC(Nc2ccc(C3=C(CC(F)(F)F)CCCc4c3ccc3[nH]nc(F)c43)nc2)C1"
experimental_system = "ERα (Homo sapiens (Human), UniProt P03372)"
reported_result = 2.30

[[record]]
compound = "FCCCN1CC(Nc2ncc(C3=C(CC(F)(F)F)CCCc4c3ccc3[nH]ncc43)cn2)C1"
experimental_system = "ERα (Homo sapiens (Human), UniProt P03372)"
reported_result = 2.23

[[record]]
compound = "FCCCN1CC(Nc2cnc(C3=C(CC(F)(F)F)CCCc4c3ccc3[nH]ncc43)nc2)C1"
experimental_system = "ERα (Homo sapiens (Human), UniProt P03372)"
reported_result = 2.60

[[record]]
compound = "FCCCN1CC(Nc2cnc(C3=C(CC(F)(F)F)CCCc4c3ccc3[nH]nc(F)c43)cn2)C1"
experimental_system = "ERα (Homo sapiens (Human), UniProt P03372)"
reported_result = 2.57

[[record]]
compound = "FCCCN1CC(Nc2cnc(C3=C(CC(F)(F)F)CCCc4c3ccc3[nH]ncc43)cn2)C1"
experimental_system = "ERα (Homo sapiens (Human), UniProt P03372)"
reported_result = 1.23

[[record]]
compound = "OCCCC1=C(c2ccc(OC3CN(CCCF)C3)cc2)c2ccc3[nH]ncc3c2CCC1 [Formate of 1]"
experimental_system = "ERα (Homo sapiens (Human), UniProt P03372)"
reported_result = 2.40


* * *

test: In vivo pharmacokinetic study in rats
Design: species or system male SD rats
conditions: male, SD, rat, plasma, iv, i.v. 1 mg/kg
experimental_readout: half-life (min)

[[record]]
compound = "FCCCN1CC(Nc2ccc(C3=C(CC(F)(F)F)CCCc4c3ccc3[nH]nc(F)c43)nc2)C1 [Compound 2]"
reported_result = 217


* * *

test: In vivo pharmacokinetic study in mice
Parameters: species or system female Balb/c mice
conditions: female, Balb/c, mouse, plasma, po, p.o. 10 mg/kg
Text: Experimental purposes: To test the drug concentration in plasma of mice at different times after intravenous and intragastric administration of the test compound by LC/MS/MS using female Balb/c mice as the experimental animals. To study the pharmacokinetics of the test compound in mice in vivo and evaluate their pharmacokinetic characteristics. […]
experimental_readout: AUC(0-t) (µM·h)

[[record]]
molecule = "FCCCN1CC(Nc2ccc(C3=C(CC(F)(F)F)CCCc4c3ccc3[nH]nc(F)c43)nc2)C1 [Compound 2]"
value_units = "µM·h"
reported_result = 11.7


* * *

test: In vivo pharmacokinetic study in rats
Parameters: species or system male SD rats
conditions: male, SD, rat, plasma, iv, i.v. 1 mg/kg
Description: Experimental purposes: To test the drug concentration in plasma of rats at different times after intravenous and intragastric administration of the test compound by LC/MS/MS using male fasted SD rats as the experimental animals. To study the pharmacokinetics of the test compound in rats in vivo and evaluate their pharmacokinetic characteristics. […]
experimental_readout: clearance (mL/min/kg)

[[record]]
structure_string = "FCCCN1CC(Nc2ccc(C3=C(CC(F)(F)F)CCCc4c3ccc3[nH]nc(F)c43)nc2)C1"
reported_result = 54.6


* * *

test: In vivo pharmacokinetic study in mice
Set-up: species or system female Balb/c mice
conditions: female, Balb/c, mouse, plasma, iv, i.v. 5 mg/kg
experimental_readout: half-life (h)

[[record]]
compound = "FCCCN1CC(Nc2ccc(C3=C(CC(F)(F)F)CCCc4c3ccc3[nH]nc(F)c43)nc2)C1 [Compound 2]"
experimental_readout = "half-life"
reported_result = 6.85


* * *

test: In vivo pharmacokinetic study in mice
Design: species or system female Balb/c mice
conditions: female, Balb/c, mouse, plasma, iv, i.v. 5 mg/kg, read-out: Vdss
experimental_readout: Vd (L/kg)

[[record]]
compound = "FCCCN1CC(Nc2ccc(C3=C(CC(F)(F)F)CCCc4c3ccc3[nH]nc(F)c43)nc2)C1 [Compound 2]"
experimental_readout = "Vd"
value_units = "L/kg"
reported_result = 10.6


* * *

test: In vivo pharmacokinetic study in mice
Set-up: species or system female Balb/c mice
conditions: female, Balb/c, mouse, plasma, oral, p.o. 10 mg/kg vs i.v. 5 mg/kg
experimental_readout: bioavailability (%)

[[record]]
structure_string = "FCCCN1CC(Nc2ccc(C3=C(CC(F)(F)F)CCCc4c3ccc3[nH]nc(F)c43)nc2)C1"
experimental_readout = "bioavailability"
value_units = "%"
reported_result = 71.8


* * *

test: In vivo pharmacokinetic study in rats
Set-up: species or system male SD rats
conditions: male, SD, rat, plasma, iv, i.v. 1 mg/kg
Source text: Experimental purposes: To test the drug concentration in plasma of rats at different times after intravenous and intragastric administration of the test compound by LC/MS/MS using male fasted SD rats as the experimental animals. To study the pharmacokinetics of the test compound in rats in vivo and evaluate their pharmacokinetic characteristics. […]
experimental_readout: AUC(0-t) (µM·h)

[[record]]
structure_string = "FCCCN1CC(Nc2ccc(C3=C(CC(F)(F)F)CCCc4c3ccc3[nH]nc(F)c43)nc2)C1"
reported_result = 0.493


* * *

test: In vivo pharmacokinetic study in mice
Set-up: species or system female Balb/c mice
conditions: female, Balb/c, mouse, plasma, iv, i.v. 5 mg/kg
experimental_readout: AUC(0-t) (µM·h)

[[record]]
structure_string = "FCCCN1CC(Nc2ccc(C3=C(CC(F)(F)F)CCCc4c3ccc3[nH]nc(F)c43)nc2)C1"
experimental_readout = "AUC(0-t)"
reported_result = 8.47


* * *

test: In vivo pharmacokinetic study in rats
Parameters: species or system male SD rats
conditions: male, SD, rat, plasma, po, p.o. 2 mg/kg
experimental_readout: half-life (h)

[[record]]
structure_string = "FCCCN1CC(Nc2ccc(C3=C(CC(F)(F)F)CCCc4c3ccc3[nH]nc(F)c43)nc2)C1"
value_units = "h"
reported_result = 5.8


* * *

experimental_system: CYP1A2 (Homo sapiens (Human))
Sequence (P05177 whole entry): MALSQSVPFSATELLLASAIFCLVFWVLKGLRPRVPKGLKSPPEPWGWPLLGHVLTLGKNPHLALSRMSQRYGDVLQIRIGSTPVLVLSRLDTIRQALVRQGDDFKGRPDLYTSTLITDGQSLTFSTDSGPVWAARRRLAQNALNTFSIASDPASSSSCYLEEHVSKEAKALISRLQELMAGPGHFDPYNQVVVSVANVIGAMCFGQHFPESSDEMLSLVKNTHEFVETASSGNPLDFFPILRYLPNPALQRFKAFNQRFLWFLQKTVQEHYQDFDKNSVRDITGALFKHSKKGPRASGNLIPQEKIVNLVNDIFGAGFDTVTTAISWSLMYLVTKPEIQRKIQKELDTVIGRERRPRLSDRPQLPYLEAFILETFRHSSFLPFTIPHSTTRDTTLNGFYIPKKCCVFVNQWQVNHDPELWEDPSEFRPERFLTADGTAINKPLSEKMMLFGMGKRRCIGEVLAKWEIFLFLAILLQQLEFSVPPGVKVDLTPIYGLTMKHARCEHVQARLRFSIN
Assay type: in vitro ADME
conditions: microsomes
experimental_readout: IC50

[[record]]
compound = "FCCCN1CC(Nc2cnc(C3=C(CC(F)(F)F)CCCc4c3ccc3[nH]nc(F)c43)cn2)C1"
experimental_readout = "IC50"
reported_result = "> 50 µM"

[[record]]
compound = "FCCCN1CC[C@H](Nc2cnc(C3=C(CC(F)(F)F)CCCc4c3ccc3[nH]nc(F)c43)cn2)C1 [Compound 11A]"
experimental_readout = "IC50"
reported_result = "> 50 µM"


* * *

experimental_system: CYP3A4 (Homo sapiens (Human), UniProt P08684)
Sequence (P08684 whole entry): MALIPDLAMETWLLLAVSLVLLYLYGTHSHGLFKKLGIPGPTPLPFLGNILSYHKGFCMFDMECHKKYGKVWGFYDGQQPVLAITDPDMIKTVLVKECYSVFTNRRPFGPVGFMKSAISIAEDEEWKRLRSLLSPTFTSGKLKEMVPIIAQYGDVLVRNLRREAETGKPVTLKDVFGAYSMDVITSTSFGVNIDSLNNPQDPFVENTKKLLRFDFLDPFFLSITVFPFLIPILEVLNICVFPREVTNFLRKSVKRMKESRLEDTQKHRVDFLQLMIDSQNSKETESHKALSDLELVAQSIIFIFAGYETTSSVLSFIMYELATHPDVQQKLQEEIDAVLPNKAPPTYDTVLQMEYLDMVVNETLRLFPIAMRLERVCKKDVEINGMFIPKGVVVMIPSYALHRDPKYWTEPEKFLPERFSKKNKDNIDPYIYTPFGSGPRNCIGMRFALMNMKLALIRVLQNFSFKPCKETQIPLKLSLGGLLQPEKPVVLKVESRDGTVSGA
test: Cytochrome P450 isoenzyme inhibition, human liver microsomes
Format: in vitro ADME
experimental_readout: IC50

[[record]]
compound = "N#Cc1cc(C2=C(CC(F)(F)F)CCCc3c2ccc2[nH]nc(F)c32)ncc1NC1CN(CCCF)C1"
reported_result = "30.8 µM"

[[record]]
compound = "FCCCN1CC(Nc2cnc(C3=C(CC(F)(F)F)CCOc4c3ccc3[nH]ncc43)cn2)C1"
reported_result = "13.6 µM"

[[record]]
compound = "FCCCN1CC(Nc2cnc(C3=C(CC(F)(F)F)CCCc4c3ccc3[nH]nc(F)c43)cn2)C1"
reported_result = "42.1 µM"

[[record]]
compound = "FCCCN1CC(Nc2ccc(C3=C(CC(F)(F)F)CCCc4c3ccc3[nH]nc(F)c43)nc2)C1"
reported_result = "47.2 µM"

[[record]]
compound = "FCCCN1CC(Nc2ncc(C3=C(CC(F)(F)F)CCCc4c3ccc3[nH]ncc43)cn2)C1"
reported_result = "11.1 µM"

[[record]]
compound = "FCCCN1CC[C@H](Nc2cnc(C3=C(CC(F)(F)F)CCCc4c3ccc3[nH]nc(F)c43)cn2)C1 [Compound 11A]"
reported_result = "25.7 µM"


Where these numbers come from: patent US12415799B2
